experiment: NCI Yeast Anticancer Drug Screen. Data for the cln2 rad14 strain (AID 165);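 also: 0% = growth equal to vehicle treated cultures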
conditions used: S. cerevisiae cln2 rad14 strain, at 5.0 µM (retest, dose inferred, filed as 0.5), hits give high values
This is part of a sample that, as a whole, favours compounds with a hit. Of some 79,000 tested, about 15% had one in any assay.
Let's look at some compounds and their measured growth inhibition.
readout name: growth inhibition (%)

{"compound": "CC(=O)OCc1cc2c(s1)C(=O)c1sccc1C2=O", "assay result": 11}
{"compound": "CC(C)(c1ccc(OC#N)cc1)c1ccc(OC#N)cc1", "assay result": 23}
{"compound": "O=C(CC(=O)Nc1cccc(Cl)c1)NNCC(=O)Nc1nnc(-c2ccccc2)s1", "assay result": 3}
{"compound": "O=[N+]([O-])c1ccc2c(c1)[n+]([O-])c1[nH]c3ccccc3c1[n+]2[O-] (tested in a mixture with another compound)", "assay result": 48}
{"compound": "Cc1ccc(NC(=O)Cc2nc3ccccc3s2)c(C)c1", "assay result": 6}
{"compound": "Cc1c[nH]c(=O)n(CC(=O)C2CCC3C4CCC5=CC(=O)CCC5(C)C4CCC23C)c1=O (configuration not stated)", "assay result": -1}
{"compound": "c1ccc2[nH]c(CN(CCN(Cc3nc4ccccc4[nH]3)Cc3nc4ccccc4[nH]3)Cc3nc4ccccc4[nH]3)nc2c1", "assay result": 99}
{"compound": "COc1cccc(C2c3cc4c(cc3OC(NNc3ccccc3)C2C)OCO4)c1O (configuration not stated)", "assay result": 19}
{"compound": "O=c1oc2ccccc2c(O)c1C1=N/C(=N/N=C/c2ccc(Cl)cc2)SC1", "assay result": 0}
{"compound": "Cc1ccc(S(=O)(=O)OC2C(C)OCOC(C)C2OS(=O)(=O)c2ccc(C)cc2)cc1 (configuration not stated)", "assay result": 0}
{"compound": "COc1cccc(=O)cc1", "assay result": 7}
{"compound": "CC(=O)c1c(-c2ccc(Cl)cc2)c(-c2ccc(Cl)cc2)nn(CCO)c1=O", "assay result": 3}
{"compound": "CC(N1CCOCC1)C(O)(c1ccccc1)c1ccccn1 (configuration not stated)", "assay result": 24}
{"compound": "NC(=O)c1ccccc1C(=O)O", "assay result": 2}
{"compound": "O=C(O)C(Cc1cc(I)c(O)c(I)c1)c1ccccc1 (configuration not stated)", "assay result": -5}
{"compound": "CCCCC(O)(c1ccc2nc(NC(=O)OC)[nH]c2c1)c1cccs1 (configuration not stated)", "assay result": -15}
{"compound": "CC(C)(CCCCC(C)(C)NCC1COc2ccccc2O1)NCC1COc2ccccc2O1 (configuration not stated)", "assay result": 0}
{"compound": "Cc1cc(=O)oc2c3c(ccc12)OC(c1ccc(Br)cc1)CC3=O (configuration not stated)", "assay result": 11}
{"compound": "COc1ccccc1C(=O)[O][Sn]([c]1ccccc1)([c]1ccccc1)[c]1ccccc1", "assay result": 99}
{"compound": "CN1C(OCc2ccccc2)c2c(ccc3c2OCO3)C2C=Cc3cc4c(cc3C21)OCO4 (configuration not stated)", "assay result": 89}
{"compound": "NC(=S)Nc1ccccc1O", "assay result": 0}
{"compound": "CC1=C/C(=C\\c2ccc([N+](=O)[O-])o2)C(=O)O1", "assay result": 97}
{"compound": "CC(=O)N1c2ccccc2Sc2ccc(C(=O)CCl)cc21", "assay result": 9}
{"compound": "COc1ccc(NNC(=O)c2ccccc2)cc1", "assay result": 3}
{"compound": "CC(CO)(CO)Cc1ccccc1", "assay result": -3}
{"compound": "CCOC(=O)C[P+](c1ccc(C)cc1)(c1ccc(C)cc1)c1ccc(C)cc1", "assay result": 2}
{"compound": "Brc1ccc2[nH]c3ccccc3c2c1", "assay result": -2}
{"compound": "CCCCC(/C=N\\NC(=O)c1ccc[n+](C)c1)=C/c1ccccc1", "assay result": -2}
{"compound": "Nc1c(C(=O)O)cccc1[N+](=O)[O-]", "assay result": -1}
{"compound": "Cc1cc2nc3ccc(N(C)C)cc3nc2cc1N", "assay result": 29}
{"compound": "CCC(c1ccc(O)cc1)C(O)(CC)c1ccc(O)cc1 (configuration not stated)", "assay result": -24}
{"compound": "O=C(N/C(=C\\c1ccc(/C=C(\\NC(=O)c2ccccc2)c2nc3ccccc3s2)cc1)c1nc2ccccc2s1)c1ccccc1", "assay result": 38}
{"compound": "c1ccc(CN2CCC3(CC2)SSC2(CCN(Cc4ccccc4)CC2)SS3)cc1", "assay result": 31}
{"compound": "COc1cc(C(=O)OCC(C)C)ccc1O", "assay result": 2}
{"compound": "CCN(CC)CCNc1c2ccccc2nc2cccc([N+](=O)[O-])c12", "assay result": 85}
{"compound": "Nc1cc(F)c2c(c1F)C(=O)c1cc(F)ccc1-2", "assay result": 4}
{"compound": "Cc1cc2oc3c(ccc(=O)n3C)c(=O)c2c(C)c1Cl", "assay result": 20}
{"compound": "O=C1C(CCl)=CS(=O)(=O)c2ccccc21", "assay result": 5}
{"compound": "Cc1c2ccncc2c(C)c2c1sc1ccccc12", "assay result": 32}
{"compound": "Cc1ccccc1C[n+]1ccccc1Br", "assay result": -4}
{"compound": "Nc1nc(-c2ccc(Cl)cc2)c(N=Nc2ccc(Br)cc2)s1", "assay result": -11}
{"compound": "CC(C)(N)COB(c1ccccc1)c1ccccc1", "assay result": 0}
{"compound": "Cc1ccc([N+](=O)[O-])cc1Cl", "assay result": -2}
{"compound": "O=C1c2cccc3cccc(c23)C1(Br)Br", "assay result": 37}
{"compound": "O=c1ccc2nc3ccccc3ccc-2c1", "assay result": -46}
{"compound": "COc1ccc(-c2noc(=O)c3ccccc23)cc1", "assay result": 4}
{"compound": "CCCCCC(Oc1ccc(Cl)cc1)C(=O)O (configuration not stated)", "assay result": -1}

---

experiment: NCI Yeast Anticancer Drug Screen. Data for the rad50 strain (AID 155);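 also: 0% = growth of vehicle-only cultures of the same strain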
conditions used: S. cerevisiae rad50 strain growth inhibition; at 50.0 µM (retest, dose inferred, filed as 5.0)
This is part of a sample that, as a whole, favours compounds with a hit. Of some 79,000 tested, about 15% had one in any assay. The source made the active and inactive calls. No stated cut-off is given here; in the data, active means growth inhibition above about 70%; inactive means the rest.
Outcomes: class 1 (active), class 0 (inactive)

{"compound": "CC(C)(C[NH-])C[NH-].[Cl][Pt+2]([Cl])([Cl])[Cl]", "class assignment": "class 1"}
{"compound": "CC1=NC(=Cc2cccc(Cl)c2)C(=O)N1n1c(-c2ccccc2)nc2ccccc2c1=O", "class assignment": "class 1"}
{"compound": "CCCCCCCCCCCCC1N=C(N)N2CCCC2=C1C(=O)OC (stereo unspecified)", "class assignment": "class 1"}
{"compound": "O=c1nc(N2CCCC2)nc(N2CCCC2)s1", "class assignment": "class 0"}
{"compound": "COc1cc2c(cc1C(C)C)CCC1C(C)(C#N)CCCC21C (stereo unspecified)", "class assignment": "class 0"}
{"compound": "CCCC/C=C(\\CCCNCCCC)[Si](C)(C)C", "class assignment": "class 1"}
{"compound": "O=C1C=CC(=O)c2c1cc1ccccc1c2O", "class assignment": "class 1"}
{"compound": "CC1(C)OC2C(COC(c3ccccc3)(c3ccccc3)c3ccccc3)OC(n3cnc4c(=O)[nH]cnc43)C2O1 (stereo unspecified)", "class assignment": "class 1"}
{"compound": "CCCCC(/C=N\\NC(=O)c1ccc[n+](C)c1)=C/c1ccccc1", "class assignment": "class 0"}
{"compound": "N#CC(CC(Br)CBr)(c1ccccc1)c1ccccc1 (stereo unspecified)", "class assignment": "class 0"}
{"compound": "Cc1nc2c(cnn2-c2ccccc2)c(=O)o1", "class assignment": "class 0"}

---

experiment: NCI Yeast Anticancer Drug Screen. Data for the cln2 rad14 strain (AID 165);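 also: 0% = growth equal to vehicle treated cultures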
conditions used: S. cerevisiae cln2 rad14 strain, at 50.0 µM, hits give high values
Compounds without any hit were thinned out: in the full panel of roughly 79,000, 15% have a hit.
readout name: growth inhibition (%)

{"molecule": "COc1ccc2c(c1)Cc1ccccc1C2=O", "readout name": "growth inhibition", "assay result": -0.35}
{"molecule": "CCOc1ccc2nc(NC(=O)c3c/c(=N\\NC(=O)C[N+](C)(C)C)c4ccc(O)cc4o3)sc2c1", "readout name": "growth inhibition", "assay result": 98.6}
{"molecule": "Cc1c[n+](CC(=O)c2ccc(I)cc2)c(C)s1", "readout name": "growth inhibition", "assay result": 46.3}
{"molecule": "O/N=C1\\c2ccccc2-c2ccc(Cl)cc21", "readout name": "growth inhibition", "assay result": 41.4}
{"molecule": "CC(=O)Nc1[c-]cccc1.CC(=O)Nc1[c-]cccc1.CC(=O)O.CC(=O)O.[Pd].[Pd]", "readout name": "growth inhibition", "assay result": 45.1}
{"molecule": "C/C=C(\\CCC1NCCc2c1[nH]c1ccccc21)[Si](C)(C)C (stereo unspecified)", "readout name": "growth inhibition", "assay result": 75.3}
{"molecule": "CCCOC1=C(Cl)C(=O)c2cccc([N+](=O)[O-])c2C1=O", "readout name": "growth inhibition", "assay result": 99}
{"molecule": "CCOC(=O)C(=O)C1CCCCC1=O (stereo unspecified)", "readout name": "growth inhibition", "assay result": 98.8}
{"molecule": "N#Cc1ccccc1[N+](=O)[O-]", "readout name": "growth inhibition", "assay result": 0.35}
{"molecule": "CC(=O)C1(C(C)=O)C2=C(C(=O)C(Cl)=C(Cl)C2=O)N2C=CC=CC21 (stereo unspecified)", "readout name": "growth inhibition", "assay result": 96.8}
{"molecule": "CCCCCCCC/C=C\\CCCCCCCC(=O)O (tested in a mixture with another compound)", "readout name": "growth inhibition", "assay result": -53.9}
